# systemName: T1, human C5a (human, UniProt P01031 678-751)
# T1 construct: also called hC5a; free human C5a
# T1 sequence: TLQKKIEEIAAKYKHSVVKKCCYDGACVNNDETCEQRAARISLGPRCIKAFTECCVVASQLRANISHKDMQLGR
# measurementNotes: ELISA
measurementKind: binding result

Which binding result reading was recorded for the binder 5an052 (antibody, V domains shown, Murine) VH: EVQLQQSGPELVKPGASVRISCKASGYTFNDYYYMNWVKQSHGKSLEWIGYIFPKTGGTHYNQRFKGKATLTVDKSSSTAYMELRSLTSEDSAVYYCASGPFAYWGQGTLVTVSA VL: QIVLTQSPAIMSASPGEKVTLTCSASSSVSSSYLYWYQQKPGSSPKLWIYSTSNLASGVPARFSGSGSGTSYSLTISTVEAEDAASYFCHQWSSYPPTFGGGTKLEIKR ?
binds

May I ask what binding result has been recorded for 5anG10 (antibody, V domains shown, Murine) VH: EVQLQQSGPELVKPGASVRISCKASGYTFNDYYYMNWVKQSHGKSLEWIGYIFPKTGGTHYNQRFKGKATLTVDKSSSTAYMELRSLTSEDSAVYYCASGPFAYWGQGTLVTVSA VL: QIVLTQSPAIMSASPGEKVTMTCSASSSISYMHWYQQKPGTSPKRWIYDTSKLASGVPARFSGSGSGTSYSLTISSMEAEDAATYYCHQRRSYPWTFGGGTKLEIKR ?
binds
